- COND: in chloroform, 322.39 K

INPUT_SMILES: CC[C@@]1(O)C(=O)OCc2c1cc1n(c2=O)Cc2cc3ccccc3nc2-1
solubility (mole fraction): 0.000575

* * *

- COND: in methanol, 321.42 K

INPUT_SMILES: CC[C@@]1(O)C(=O)OCc2c1cc1n(c2=O)Cc2cc3ccccc3nc2-1
solubility (mole fraction): 5.59e-05

* * *

- COND: in methanol, 280.45 K

INPUT_SMILES: CC[C@@]1(O)C(=O)OCc2c1cc1n(c2=O)Cc2cc3ccccc3nc2-1
solubility (mole fraction): 1.43e-05

* * *

- COND: in methanol, 311.02 K
EXPERIMENTAL_READOUT: solubility (mole fraction)

INPUT_SMILES: CC[C@@]1(O)C(=O)OCc2c1cc1n(c2=O)Cc2cc3ccccc3nc2-1
EXPERIMENTAL_READOUT: solubility (mole fraction)
OBSERVED_MEASUREMENT: 4e-05

* * *

- COND: in ethanol, 284.67 K

INPUT_SMILES: CC[C@@]1(O)C(=O)OCc2c1cc1n(c2=O)Cc2cc3ccccc3nc2-1
solubility (mole fraction): 1.25e-05

* * *

- COND: in ethanol, 301.09 K

INPUT_SMILES: CC[C@@]1(O)C(=O)OCc2c1cc1n(c2=O)Cc2cc3ccccc3nc2-1
solubility (mole fraction): 2.24e-05

* * *

- COND: in chloroform, 285.02 K

INPUT_SMILES: CC[C@@]1(O)C(=O)OCc2c1cc1n(c2=O)Cc2cc3ccccc3nc2-1
solubility (mole fraction): 0.000288

* * *

- COND: in chloroform, 279.07 K

INPUT_SMILES: CC[C@@]1(O)C(=O)OCc2c1cc1n(c2=O)Cc2cc3ccccc3nc2-1
solubility (mole fraction): 0.000246

* * *

- COND: in chloroform, 294.18 K

INPUT_SMILES: CC[C@@]1(O)C(=O)OCc2c1cc1n(c2=O)Cc2cc3ccccc3nc2-1
solubility (mole fraction): 0.000354

* * *

- COND: in methanol, 296.6 K

INPUT_SMILES: CC[C@@]1(O)C(=O)OCc2c1cc1n(c2=O)Cc2cc3ccccc3nc2-1
solubility (mole fraction): 2.49e-05

* * *

- COND: in ethanol, 316.57 K
EXPERIMENTAL_READOUT: solubility (mole fraction)

INPUT_SMILES: CC[C@@]1(O)C(=O)OCc2c1cc1n(c2=O)Cc2cc3ccccc3nc2-1
OBSERVED_MEASUREMENT: 3.68e-05

* * *

- COND: in chloroform, 275.76 K

INPUT_SMILES: CC[C@@]1(O)C(=O)OCc2c1cc1n(c2=O)Cc2cc3ccccc3nc2-1
solubility (mole fraction): 0.000222

* * *

- COND: in ethanol, 291 K
EXPERIMENTAL_READOUT: solubility (mole fraction)

INPUT_SMILES: CC[C@@]1(O)C(=O)OCc2c1cc1n(c2=O)Cc2cc3ccccc3nc2-1
EXPERIMENTAL_READOUT: solubility (mole fraction)
OBSERVED_MEASUREMENT: 1.6e-05

* * *

- COND: in chloroform, 291.19 K
EXPERIMENTAL_READOUT: solubility (mole fraction)

INPUT_SMILES: CC[C@@]1(O)C(=O)OCc2c1cc1n(c2=O)Cc2cc3ccccc3nc2-1
OBSERVED_MEASUREMENT: 0.000332
